The measurements presented in this section are drawn from patent US20240190865A1.

assay: In vivo pharmacokinetics in rats; design: species or system Sprague-Dawley rats; details: rat, plasma; male Sprague-Dawley rats, 10 mg/kg PO, 1 hr; read-out: Mean (ng/mL) after 10 mg/kg PO dose
QUANTITY KIND: concentration at 1 h (ng/mL)
Give the value in ng/mL but do not write ng/mL after it.

INPUT: Provide measured concentration at 1 h value, entry: `C[C@@H](NC(=O)Cc1ccc(C(F)(F)F)cc1)c1cc2cnn(CC(F)(F)F)c2cn1`
OUTPUT: 4710

---

tested on: Miro1; assay: Miro1 fibroblast assay (CCCP challenge, Miro1 Western blot); assay type: cell-based; conditions: skin fibroblasts from human Parkinson's disease patients, CCCP 40 μM 24 hr; read-out: Fibroblast IC50 (nM), Miro1 reduction
QUANTITY KIND: IC50 (nM)
Only the number, expressed in nM, is required.

INPUT: For `O=C(c1cc(S(=O)(=O)Nc2ccccc2F)c(F)cc1Cl)N1CCN2CCC[C@@H]2C1` , write its IC50.
OUTPUT: 5410

INPUT: Let me know recorded IC50 for `N#Cc1ccc(Cn2ccc(NC(=O)Cc3ccc(C4(C(F)(F)F)CC4)cc3)n2)nc1` , thanks.
OUTPUT: 3930

INPUT: Fill in reported IC50 for this entry: `CC(C)c1ccc(CC(=O)N[C@H](C)c2ccc(OCC(F)(F)F)cn2)cc1`
OUTPUT: 693

INPUT: # return recorded IC50 for entry COC(=O)C1=C(C)NC(C)=C(C(=O)OC2CCCN(Cc3ccccc3)C2)C1c1cccc([N+](=O)[O-])c1 (stereo not shown)
OUTPUT: 2560
